# Test system: biotinyl-Val-oxazolone
# Assay summary: self-aminoacylation, catalytic enhancement (BVO) (fold over background); higher = more active; k-Seq, kA / k0A0; sequences stand for … in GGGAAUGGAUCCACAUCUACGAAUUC…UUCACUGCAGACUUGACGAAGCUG
Fewer inactive variants are shown than the library holds.
// label = satisfied if self-aminoacylation is not less than 3, otherwise not satisfied

INSERT INTO measurements (chain, assigned_label) VALUES
  ('AUUACCCUGGACAUCGAUUGA [Fam2.1 aminoacylation ribozyme variant]', 'not satisfied');

Does the sequence AUCACCCUGGUCAUCGAGUGG [Fam2.1 aminoacylation ribozyme variant] have recorded self-aminoacylation that is 3 or more?
satisfied

Does the sequence CCACUUCAAACAAUCGGUGUG [Fam1A.1 aminoacylation ribozyme variant] have recorded self-aminoacylation that is 3 or more?
not satisfied

Does the sequence AAUACCCCGGUCAUCGAGUGA [Fam2.1 aminoacylation ribozyme variant] have recorded self-aminoacylation that is 3 or more?
satisfied

Does the sequence AUUACCCUGGUCACCGAGUGA [Fam2.1 aminoacylation ribozyme variant] have recorded self-aminoacylation that is 3 or more?
satisfied
